testName: Phase I clinical trial: pharmacokinetics after single and multiple oral administrations
Format: in vivo, human
testSettings: human, plasma, oral; Single administration; 80 mg; GM (%CV)
measuredEndpoint: AUC(0-inf) (ng·h/mL)
Answers are plain numbers, in ng·h/mL.

The measured AUC(0-inf) associated with [2H]C([2H])([2H])n1nc2c(c1C#N)-c1cnc(N)c(c1)O[C@H](C)c1cc(F)ccc1C(=O)N(C)C2 reads 10100

###

testName: Phase I clinical trial: pharmacokinetics after single and multiple oral administrations
Assay type: in vivo, human
testSettings: human, plasma, oral; Single administration; 80 mg; GM (%CV)
measuredEndpoint: half-life (h)
Give bare numbers, in h.

The compound listed as [2H]C([2H])([2H])n1nc2c(c1C#N)-c1cnc(N)c(c1)O[C@H](C)c1cc(F)ccc1C(=O)N(C)C2 [compound A] shows half-life equal to 34.2

###

testName: Phase I clinical trial: pharmacokinetics after single and multiple oral administrations
Type: in vivo, human
testSettings: human, plasma, oral; Single administration; 100 mg; GM (%CV)
measuredEndpoint: half-life

Per the record, [2H]C([2H])([2H])n1nc2c(c1C#N)-c1cnc(N)c(c1)O[C@H](C)c1cc(F)ccc1C(=O)N(C)C2 [compound A] has half-life of 30.5 h

###

testName: Phase I clinical trial: pharmacokinetics after single and multiple oral administrations
Format: in vivo, human
testSettings: human, plasma, oral, 60 mg, Single administration; Median (min-max)
measuredEndpoint: Tmax (min)
One number for each entry, in min.

# Tmax (compound: [2H]C([2H])([2H])n1nc2c(c1C#N)-c1cnc(N)c(c1)O[C@H](C)c1cc(F)ccc1C(=O)N(C)C2 [compound A] ) is 30

###

testName: Phase I clinical trial: pharmacokinetics after single and multiple oral administrations
Format: in vivo, human
testSettings: human, plasma, oral; Multiple administrations; 60 mg; GM (%CV); read-out: AUC0-τ
measuredEndpoint: AUC (ng·h/mL)
Give bare numbers, in ng·h/mL.

Quick note, AUC for [2H]C([2H])([2H])n1nc2c(c1C#N)-c1cnc(N)c(c1)O[C@H](C)c1cc(F)ccc1C(=O)N(C)C2 landed at 5440

###

testName: Phase I clinical trial: pharmacokinetics after single and multiple oral administrations
Assay type: in vivo, human
testSettings: human, plasma, oral; Single administration; 60 mg; GM (%CV)
measuredEndpoint: AUC(0-t)

Lab book: AUC(0-t) of [2H]C([2H])([2H])n1nc2c(c1C#N)-c1cnc(N)c(c1)O[C@H](C)c1cc(F)ccc1C(=O)N(C)C2 noted as 11.3 µg·h/mL

###

testName: Phase I clinical trial: pharmacokinetics after single and multiple oral administrations
Format: in vivo, human
testSettings: human, plasma, oral, 100 mg, Multiple administrations; Median (min-max)
measuredEndpoint: Tmax (h)
Give bare numbers, in h.

The reported value for [2H]C([2H])([2H])n1nc2c(c1C#N)-c1cnc(N)c(c1)O[C@H](C)c1cc(F)ccc1C(=O)N(C)C2 [compound A] in terms of Tmax is 1.97

###

testName: Phase I clinical trial: pharmacokinetics after single and multiple oral administrations
Assay type: in vivo, human
testSettings: human, plasma, oral, 80 mg, Single administration; Median (min-max)
measuredEndpoint: Tmax

In plain terms, [2H]C([2H])([2H])n1nc2c(c1C#N)-c1cnc(N)c(c1)O[C@H](C)c1cc(F)ccc1C(=O)N(C)C2 [compound A] has a documented Tmax of 42 min

###

testName: Phase I clinical trial: pharmacokinetics after single and multiple oral administrations
Type: in vivo, human
testSettings: human, plasma, oral; Single administration; 80 mg; GM (%CV)
measuredEndpoint: AUC(0-t) (ng·h/mL)
Answers are plain numbers, in ng·h/mL.

Summary for this compound, [2H]C([2H])([2H])n1nc2c(c1C#N)-c1cnc(N)c(c1)O[C@H](C)c1cc(F)ccc1C(=O)N(C)C2 : AUC(0-t) is 9140

###

testName: Phase I clinical trial: pharmacokinetics after single and multiple oral administrations
Assay type: in vivo, human
testSettings: human, plasma, oral; Single administration; 60 mg; GM (%CV)
measuredEndpoint: AUC(0-inf) (ng·h/mL)
Give bare numbers, in ng·h/mL.

# molecule [2H]C([2H])([2H])n1nc2c(c1C#N)-c1cnc(N)c(c1)O[C@H](C)c1cc(F)ccc1C(=O)N(C)C2 [compound A] ; its AUC(0-inf) = 12200

###

testName: Phase I clinical trial: pharmacokinetics after single and multiple oral administrations
Assay type: in vivo, human
testSettings: human, plasma, oral, 40 mg, Multiple administrations; Median (min-max)
measuredEndpoint: Tmax

Short answer for [2H]C([2H])([2H])n1nc2c(c1C#N)-c1cnc(N)c(c1)O[C@H](C)c1cc(F)ccc1C(=O)N(C)C2 : Tmax was 1 h

###

testName: Phase I clinical trial: pharmacokinetics after single and multiple oral administrations
Type: in vivo, human
testSettings: human, plasma, oral; Single administration; 40 mg; GM (%CV)
measuredEndpoint: half-life (min)
One number for each entry, in min.

Field half-life (entry [2H]C([2H])([2H])n1nc2c(c1C#N)-c1cnc(N)c(c1)O[C@H](C)c1cc(F)ccc1C(=O)N(C)C2 ) reads 1670

###

testName: Phase I clinical trial: pharmacokinetics after single and multiple oral administrations
Type: in vivo, human
testSettings: human, plasma, oral; Multiple administrations; 80 mg; GM (%CV); read-out: AUC0-τ
measuredEndpoint: AUC (µg·h/mL)
Give bare numbers, in µg·h/mL.

AUC reported for this compound [2H]C([2H])([2H])n1nc2c(c1C#N)-c1cnc(N)c(c1)O[C@H](C)c1cc(F)ccc1C(=O)N(C)C2 : 5.5

###

testName: Phase I clinical trial: pharmacokinetics after single and multiple oral administrations
Assay type: in vivo, human
testSettings: human, plasma, oral; Multiple administrations; 100 mg; GM (%CV); read-out: AUC0-τ
measuredEndpoint: AUC (ng·h/mL)
Answers are plain numbers, in ng·h/mL.

Entry [2H]C([2H])([2H])n1nc2c(c1C#N)-c1cnc(N)c(c1)O[C@H](C)c1cc(F)ccc1C(=O)N(C)C2 [compound A] ; AUC = 7020

###

testName: Phase I clinical trial: pharmacokinetics after single and multiple oral administrations
Format: in vivo, human
testSettings: human, plasma, oral; Single administration; 100 mg; GM (%CV)
Excerpt: The PK parameters for single-dose administration mainly include peak concentration (Cmax), time to peak concentration (Tmax), half-life (T1/2), systemic clearance (CL), volume of distribution (Vd), AUC0-t, and AUC0-∞. […]
measuredEndpoint: AUC(0-t)
Field: value (include unit after the number)

Reported AUC(0-t) ( [2H]C([2H])([2H])n1nc2c(c1C#N)-c1cnc(N)c(c1)O[C@H](C)c1cc(F)ccc1C(=O)N(C)C2 [compound A] ) = 13800 ng·h/mL

###

testName: Phase I clinical trial: pharmacokinetics after single and multiple oral administrations
Format: in vivo, human
testSettings: human, plasma, oral; Single administration; 40 mg; GM (%CV)
measuredEndpoint: AUC(0-t) (ng·h/mL)
Numbers only, in ng·h/mL.

Record [2H]C([2H])([2H])n1nc2c(c1C#N)-c1cnc(N)c(c1)O[C@H](C)c1cc(F)ccc1C(=O)N(C)C2 [compound A] , field AUC(0-t): 4440

###

testName: Phase I clinical trial: pharmacokinetics after single and multiple oral administrations
Format: in vivo, human
testSettings: human, plasma, oral; Single administration; 125 mg; GM (%CV)
measuredEndpoint: AUC(0-inf)

Please fill in: AUC(0-inf) reported for [2H]C([2H])([2H])n1nc2c(c1C#N)-c1cnc(N)c(c1)O[C@H](C)c1cc(F)ccc1C(=O)N(C)C2 = 18.7 µg·h/mL
